System: SK-MEL-28
run_description: NCI tumour cell line growth inhibition, 48 h
The source made the active and inactive calls. Cut-off read from the data, not from the text of the source: active = GI50 up to about 1.1 µM and inactive = higher.
Each record here notes measured GI50.

The following compounds have reported results that may help.
compound	subject_of_test	assay_readout	reported_result
Nc1nc(O)c2c(n1)NCN(CCCN1CCOCC1)C2	SK-MEL-28	GI50	> 100 µM (inactive)
CC(=O)OC1C[C@H]2C(OC(=O)c3ccccc3)C3C4(OC(C)=O)COC4C[C@H](OC(C)=O)[C@@]3(C)C(OC(C)=O)[C@H](OC(C)=O)C(=C1C)C2(C)C (stereo partly specified)	SK-MEL-28	GI50	> 100 µM (inactive)
NC(CCSC(F)F)C(=O)O (stereo unspecified)	SK-MEL-28	GI50	> 100 µM (inactive)
O=C1c2ccsc2C(=O)c2sc(CO)cc21	SK-MEL-28	GI50	0.0307 µM (active)
Cc1cn(C2CC(CCCO)C(CO)O2)c(=O)[nH]c1=O (stereo unspecified)	SK-MEL-28	GI50	> 100 µM (inactive)
COC(=O)CCc1ccc2c(c1)CCC2	SK-MEL-28	GI50	> 100 µM (inactive)
O=C(O)c1ccc(C2SCc3nc4ccccc4n32)cc1 (stereo unspecified)	SK-MEL-28	GI50	> 100 µM (inactive)
C=CCN1C(=O)CS/C1=N\NC(=O)CSc1nc2ccccc2c(=O)n1CC	SK-MEL-28	GI50	> 100 µM (inactive)
CCOC(=O)C1=C(O)C(=O)c2cc(OC)ccc2C1=O	SK-MEL-28	GI50	> 100 µM (inactive)
CN(C)CCn1c(=O)c2ccc3c4c(nn3CCN(C)C)c3ccccc3n(c1=O)c24	SK-MEL-28	GI50	1.85 µM (inactive)

Note: attention shifts to another entry.
Ask: For the compound shown here, COC(=O)C1=C(C)NC2=C(C(=O)c3ccccc32)C1c1c[nH]nc1-c1ccccc1 (stereo unspecified) , give the reported GI50.
Result: 49.4 µM (inactive)

----------
System: BT-549
run_description: NCI tumour cell line growth inhibition, 48 h
The source made the active and inactive calls. Rule as the data show it: active = GI50 up to about 1.1 µM and inactive = higher.
Respond using exactly one of the listed classes: active, inactive

> print(dat)
                                   compound  discrete.label
1         Cc1ccc2c(O)cc(-c3cccc(Cl)c3)nc2n1          active
2     Cc1nn(-c2ccccn2)c2c1C(SC#N)=C(C=O)CC2        inactive
3  CC(C)(C)c1cc(C(=O)/C=C/c2ccc3c(c2)CCO3)cc(C(C)(C)C)c1O        inactive

Ask: What did the test return for `COc1ccc(C2(c3ccc(OC)cc3)OC(=O)c3cccc4cccc2c34)cc1` ?
Result: inactive

Ask: What did the test return for `COC(=O)c1cnn2c1ccc1ccccc12` ?
Result: inactive

Ask: What did the test return for `Cc1ccc(CC(=O)Nc2ccc(NC(=O)CNC(=O)/C=C/c3ccc(-c4ccccc4)cc3)cc2C(=O)c2ccccc2)cc1` ?
Result: inactive

Ask: What did the test return for `CC(=O)O[C@H]1CC[C@H]2[C@@H]3CCC4=CC(=O)C=C[C@]4(O)[C@H]3CC[C@]12C` ?
Result: inactive

Ask: What did the test return for `COc1ccc(-n2sc3ncc(C)cc3c2=O)cc1` ?
Result: inactive

Ask: What did the test return for `CCN(CC)CCNc1nc(N)c(C#N)c(C#N)c1C#N` ?
Result: inactive

Ask: What did the test return for COc1cc2c(c(O)c1OC)C(O)C1CCC(=O)N1C2c1cccc2ccccc12 (centres undefined) ?
Result: inactive

Ask: What did the test return for O=c1cnn(C2OC(C(O)CO)C(O)C2O)c(=O)[nH]1 (centres undefined) ?
Result: inactive

Ask: What did the test return for `COC(=O)Nc1nc2cc(NC(=O)c3ccc(I)cc3)ccc2[nH]1` ?
Result: inactive

----------
System: RXF 393
run_description: NCI tumour cell line growth inhibition, 48 h
Active and inactive are the calls of the source. Rule as the data show it: active = GI50 up to about 1.1 µM and inactive = higher.
Each record here notes measured GI50.

Ask: For the molecule shown here, Cc1ccc(/C=C2/N/C(=N\N=C/C(O)C(O)C(O)CO)NC2=O)cc1 (stereo not given) , give the reported GI50.
Result: > 100 µM (inactive)

Ask: For the molecule shown here, `Cn1c(=O)c2[nH]c(N/N=C3/SCC(=O)N3Cc3ccccc3)nc2n(C)c1=O` , give the reported GI50.
Result: > 100 µM (inactive)

Ask: For the molecule shown here, `Cc1ccc2c(c1)[nH]c(=S)n2C=C1C(=O)CC(C)(C)CC1=O` , give the reported GI50.
Result: > 100 µM (inactive)

Ask: For the molecule shown here, C/C=C(\C)C(=O)N1c2ccccc2CC1c1c(C)[nH]c2ccccc12 (stereo not given) , give the reported GI50.
Result: > 100 µM (inactive)

Ask: For the molecule shown here, O=C(C/C(=N/O)C(=O)NC1=C(Cl)C(=O)c2ccccc2C1=O)CC(c1ccccc1)c1c(O)c2ccccc2oc1=O (stereo not given) , give the reported GI50.
Result: 13.2 µM (inactive)

Ask: For the molecule shown here, Nc1ncnc2c1ccn2C1OC2COP(=O)(O)OC2C1O (stereo not given) , give the reported GI50.
Result: 0.212 µM (active)

Ask: For the molecule shown here, `COC(=O)Nc1nc2cc(C(=O)c3ccc[nH]3)ccc2[nH]1` , give the reported GI50.
Result: 0.0895 µM (active)

Ask: For the molecule shown here, `CCOC(=O)c1sc2c(c1OC(=O)c1ccc(Cl)cc1Cl)c(=O)n(-c1ccccc1)c(=S)n2-c1ccccc1` , give the reported GI50.
Result: > 100 µM (inactive)

Ask: For the molecule shown here, CCCCNC1CCC2(SCCS2)c2[nH]c3ccccc3c21 (stereo not given) , give the reported GI50.
Result: 21 µM (inactive)

----------
Each record here notes measured GI50.
Tested on: HCC 2998
run_description: NCI tumour cell line growth inhibition, 48 h
Calls of active or inactive are those of the source. Rule as the data show it: active = GI50 up to about 1.1 µM and inactive = higher.

> print(dat)
                                   molecule  subject.of.test  assay.readout      reported.result
1  CCCCN(CCCC)CC(C(=O)Nc1ccc([N+](=O)[O-])cc1[N+](=O)[O-])/C(C)=N\NC(=S)NN (stereo not given)         HCC 2998           GI50  > 100 µM (inactive)
2  CC(=O)O[C@H]1CC[C@H]2[C@@H]3CC[C@H]4Nc5c(cnn5S(C)(=O)=O)C[C@]4(C)[C@H]3CC[C@]12C         HCC 2998           GI50   56.4 µM (inactive)
3               NCc1ccccc1.O=C(O)NCc1ccccc1         HCC 2998           GI50   22.5 µM (inactive)
4  CCOC(=O)C(CO)c1nc2c([nH]c1=O)c(=O)n(C)c(=O)n2C (stereo not given)         HCC 2998           GI50  > 100 µM (inactive)

Ask: For the molecule shown here, Cc1ccc(C)c(NC(=O)/C(=N\N)C(c2cnc3ccc([N+](=O)[O-])cc3n2)[N+](=O)[O-])c1 (stereo not given) , give the reported GI50.
Result: 69.8 µM (inactive)

Ask: For the molecule shown here, `Clc1ccc(Nc2nn3c(CCCCCCCCc4nnc5sc(Nc6ccc(Cl)cc6)nn45)nnc3s2)cc1` , give the reported GI50.
Result: > 100 µM (inactive)

Ask: For the molecule shown here, CCCOP1(=O)C=CC(Cl)=C(C)C1 (stereo not given) , give the reported GI50.
Result: > 63.1 µM (inactive)

Ask: For the molecule shown here, `CCOc1ccc(/C=C/C(=O)c2sc(NNC(C)=O)nc2C)cc1` , give the reported GI50.
Result: > 100 µM (inactive)

Ask: For the molecule shown here, Cc1cc(=O)oc2cc(OCC(O)COC(C)C)ccc12 (stereo not given) , give the reported GI50.
Result: > 100 µM (inactive)

Ask: For the molecule shown here, `COC(=O)CNC(=O)CNC(=O)CSc1nnc(COc2ccc(Cl)cc2)n1-c1ccccc1` , give the reported GI50.
Result: 42 µM (inactive)

----------
System: HCT-116
run_description: NCI tumour cell line growth inhibition, 48 h
Activity calls are given as the source filed them. Cut-off read from the data, not from the text of the source: active = GI50 up to about 1.1 µM and inactive = higher.
Respond using exactly one of the listed classes: 1 for active, -1 for inactive

> print(dat)
                                   compound  discrete.label
1  C=C1C[C@@H]2O[C@H]3[C@H]4[C@@H](C[C@@H](C)[C@@H](OC(C)=O)[C@H]42)[C@@H](C)CO[C@@]3(C)[C@H](OC(=O)CCCCCCC)CC1=O              -1
2           COC(=O)/C(C#N)=C(\N)C(Cl)(Cl)Cl               1
3  O=C1/C(=C/c2ccc3c(c2)OCO3)CCC1CN1CCOCC1 (centres undefined)              -1
4  CC1(C)CC(=O)C2=C(C1)OC1=C(C(=O)CC(C)(C)C1)C2CC(c1ccccc1)c1ccc(O)c(O)c1O (centres undefined)              -1
5  Cn1c(=O)c2[nH]c(N/N=C3/SCC(=O)N3Cc3ccccc3)nc2n(C)c1=O              -1

Ask: What did the test return for COc1ccc(/C=C/c2cc(OC)cc(=O)o2)cc1 [YANGONIN] ?
Result: -1

Ask: What did the test return for `CCN(CC)c1ccc2cc(-c3nnc(-c4ccccc4O)o3)c(=O)oc2c1` ?
Result: -1

Ask: What did the test return for `COc1ccc(C2(c3ccc(OC)cc3)OC(=O)c3cccc4cccc2c34)cc1` ?
Result: -1

Ask: What did the test return for `O=C1CCCNn2c(nc3ncccc3c2=O)N1` ?
Result: -1
